- test.system: Bemisia argentifolii EcR (BaEcR-DEF) (Bemisia argentifolii (Bemisia tabaci biotype B / MEAM1), UniProt A0A6M3RDR8)
- Sequence (P28702 298-449): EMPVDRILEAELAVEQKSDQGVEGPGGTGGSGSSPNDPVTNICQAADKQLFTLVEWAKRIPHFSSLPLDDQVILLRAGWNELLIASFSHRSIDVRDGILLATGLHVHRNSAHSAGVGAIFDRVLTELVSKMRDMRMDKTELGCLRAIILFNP
- Sequence (A0A6M3RDR8 entry or part of it): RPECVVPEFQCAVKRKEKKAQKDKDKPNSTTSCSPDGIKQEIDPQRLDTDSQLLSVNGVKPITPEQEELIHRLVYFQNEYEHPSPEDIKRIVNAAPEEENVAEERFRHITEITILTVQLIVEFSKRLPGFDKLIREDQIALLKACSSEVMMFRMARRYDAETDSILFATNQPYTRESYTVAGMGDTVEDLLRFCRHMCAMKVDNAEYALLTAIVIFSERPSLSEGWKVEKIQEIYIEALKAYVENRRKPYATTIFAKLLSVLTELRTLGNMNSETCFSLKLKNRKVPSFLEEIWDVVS
- test.description: Two-hybrid gene switch assay, BaEcR-DEF in NIH3T3 cells
recorded.endpoint: EC50

Query string: Param item = CCc1c(OC)cccc1C(=O)NN(C(=O)c1cc(C)cc(C)c1)C(C)(C)C [diacylhydrazine 30] ; retrieve measured EC50.
Result string: 6 µM

Query string: Name the recorded EC50 for CO[C@H](CCC(C)(C)O)[C@](C)(O)C1CC[C@@]2(O)C3=CC(=O)C4C[C@@H](O)[C@@H](O)CC4(C)C3CCC12C (stereo partly drawn) [20E-22-methyl ether] .
Result string: ~3 µM

Query string: Can you look up the measured EC50 of CO[C@H]1C[C@@]2(C)[C@@H](C[C@H]1O)C(=O)C=C1[C@@H]2CC[C@]2(C)[C@@H]([C@@](C)(O)[C@H](O)CCC(C)(C)O)CC[C@@]12O [20E-2-methyl ether] for me?
Result string: > 33 µM

Query string: # query: EC50 of entry CO[C@H]1C[C@@]2(C)[C@@H](C[C@H]1O)C(=O)C=C1[C@@H]2CC[C@]2(C)[C@@H]([C@@](C)(O)[C@@H](CCC(C)(C)O)OC)CC[C@@]12O [20E-2,22-dimethyl ether]
Result string: ~10 µM

Query string: For the compound CO[C@@H]1C[C@H]2C(=O)C=C3[C@H](CC[C@]4(C)[C@@H]([C@@](C)(O)[C@@H](CCC(C)(C)O)OC)CC[C@@]34O)[C@@]2(C)C[C@@H]1O [20E-3,22-dimethyl ether] , what EC50 is on record?
Result string: ~10 µM

Okay, now this compound:
Query string: Query (compound): CO[C@@H]1C[C@H]2C(=O)C=C3[C@H](CC[C@]4(C)[C@@H]([C@@](C)(O)[C@H](O)CCC(C)(C)O)CC[C@@]34O)[C@@]2(C)C[C@@H]1O [20E-3-methyl ether] ; field requested: EC50
Result string: ~15 µM

* * *

- test.system: wild-type Aedes aegypti EcR (AaEcR-DEF) (Aedes aegypti, UniProt P49880)
- Sequence (P49880 405-776 limits assumed): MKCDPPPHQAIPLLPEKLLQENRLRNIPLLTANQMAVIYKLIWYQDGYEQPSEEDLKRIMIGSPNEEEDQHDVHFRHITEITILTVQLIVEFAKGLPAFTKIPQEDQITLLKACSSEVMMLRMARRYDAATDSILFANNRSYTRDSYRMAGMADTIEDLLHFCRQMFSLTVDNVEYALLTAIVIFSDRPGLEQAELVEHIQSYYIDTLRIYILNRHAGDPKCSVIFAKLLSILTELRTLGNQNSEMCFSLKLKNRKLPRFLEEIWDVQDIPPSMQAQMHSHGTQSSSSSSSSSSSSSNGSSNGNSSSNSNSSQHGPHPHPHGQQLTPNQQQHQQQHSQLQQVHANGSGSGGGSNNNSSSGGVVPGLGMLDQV
- test.description: Two-hybrid gene switch assay, AaEcR-DEF in NIH3T3 cells
- assay.conditions: EC50 (μM), AA, AaEcR, NIH3T3 cells, luciferase, 48 h, ligand 0.01-33 μM
recorded.endpoint: EC50

I'm hoping you can list EC50 for every molecule here, please.
1. CO[C@@H]1C[C@H]2C(=O)C=C3[C@H](CC[C@]4(C)[C@@H]([C@@](C)(O)[C@H](O)CCC(C)(C)O)CC[C@@]34O)[C@@]2(C)C[C@@H]1O [20E-3-methyl ether]
2. CO[C@H]1C[C@@]2(C)[C@@H](C[C@H]1O)C(=O)C=C1[C@@H]2CC[C@]2(C)[C@@H]([C@@](C)(O)[C@@H](CCC(C)(C)O)OC)CC[C@@]12O [20E-2,22-dimethyl ether]
3. CO[C@H](CCC(C)C)[C@](C)(O)[C@H]1CC[C@@]2(O)C3=CC(=O)[C@@H]4C[C@@H](O)[C@@H](O)C[C@]4(C)[C@H]3CC[C@]12C
4. CO[C@H](CCC(C)(C)O)[C@](C)(O)C1CC[C@@]2(O)C3=CC(=O)C4C[C@@H](O)[C@@H](O)CC4(C)C3CCC12C (stereo partly drawn) [20E-22-methyl ether]
5. CO[C@H]1C[C@@]2(C)[C@@H](C[C@H]1O)C(=O)C=C1[C@@H]2CC[C@]2(C)[C@@H]([C@@](C)(O)[C@H](O)CCC(C)(C)O)CC[C@@]12O [20E-2-methyl ether]
6. CO[C@@H]1C[C@H]2C(=O)C=C3[C@H](CC[C@]4(C)[C@@H]([C@@](C)(O)[C@@H](CCC(C)(C)O)OC)CC[C@@]34O)[C@@]2(C)C[C@@H]1O [20E-3,22-dimethyl ether]

Result string:
1. ~10 µM
2. ~8 µM
3. < 0.01 µM
4. 1.04 µM
5. ~10 µM
6. 7.15 µM

* * *

Hi there, I'd appreciate the recorded EC50 for every entry that follows.
- test.system: UniProtKB P49883
- Sequence (P49883 whole entry, change not shown, one chain of several, the tested form may be a part): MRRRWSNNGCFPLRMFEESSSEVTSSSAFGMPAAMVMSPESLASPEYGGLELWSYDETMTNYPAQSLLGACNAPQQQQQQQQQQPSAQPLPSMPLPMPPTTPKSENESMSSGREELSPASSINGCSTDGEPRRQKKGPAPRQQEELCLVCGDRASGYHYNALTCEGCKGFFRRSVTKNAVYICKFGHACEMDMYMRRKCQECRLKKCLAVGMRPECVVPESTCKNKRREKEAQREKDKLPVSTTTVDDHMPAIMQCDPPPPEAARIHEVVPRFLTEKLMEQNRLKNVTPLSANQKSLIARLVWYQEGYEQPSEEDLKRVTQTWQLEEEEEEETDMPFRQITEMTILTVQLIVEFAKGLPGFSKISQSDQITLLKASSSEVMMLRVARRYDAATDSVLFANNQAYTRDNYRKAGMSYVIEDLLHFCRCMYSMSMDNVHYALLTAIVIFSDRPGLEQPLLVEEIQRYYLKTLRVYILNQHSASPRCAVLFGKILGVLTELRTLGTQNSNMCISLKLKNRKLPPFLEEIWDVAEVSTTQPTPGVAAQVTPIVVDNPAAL
- test.description: Two-hybrid gene switch assay, luciferase reporter, MsEcR, mouse NIH3T3 cells
- assay.conditions: EC50, FIG. 13A/13B, GAL4-EcR(DEF) with VP16-RXR-USP chimera

Solved entries (count: 4):
Query string: Given CC(=O)O[C@H](CCC(C)(C)O)[C@](C)(O)[C@H]1CC[C@@]2(O)C3=CC(=O)[C@@H]4C[C@@H](O)[C@@H](O)C[C@]4(C)[C@H]3CC[C@]12C [Compound 20-hydroxyecdysone-22-acetate] , state its recorded EC50.
Result string: ~2 µM

Query string: I have this compound here, `CC(C)(O)CC[C@@H](O)[C@](C)(O)[C@H]1CC[C@@]2(O)C3=CC(=O)[C@@H]4C[C@@H](O)[C@@H](O)C[C@]4(C)[C@H]3[C@H](O)C[C@]12C` , and I need its recorded EC50.
Result string: ~12 µM

Query string: Item CC(CC(O)C(C)(O)C1CCC2(O)C3=CC(=O)C4CC(O)C(O)CC4(C)C3CCC12C)C(C)(C)O (centres unmarked) has what recorded EC50?
Result string: ~10 µM

Query string: Which EC50 is reported for this compound? CC(C)(O)CC[C@@H](O)[C@](C)(O)[C@H]1CC[C@@]2(O)C3=CC(=O)[C@@H]4C[C@H]5OC(C)(C)O[C@H]5C[C@]4(C)[C@H]3CC[C@]12C [20-hydroxyecdysone-2,3-acetonide]
Result string: ~10 µM

Continue with the next compound.
Query string: What does the record list as EC50 for CC(C)CC[C@@H](O)[C@](C)(O)[C@H]1CC[C@@]2(O)C3=CC(=O)[C@]4(O)C[C@@H](O)[C@@H](O)C[C@]4(C)[C@H]3[C@H](O)C[C@]12C [Mur A, muristerone A, reference compound] ?
Result string: 0.66 µM

* * *

- test.system: VgEcR/RXR (Drosophila melanogaster, UniProt P34021, E282G/G283S/G286V)
- Sequence (P34021 whole entry E282G/G283S/G286V): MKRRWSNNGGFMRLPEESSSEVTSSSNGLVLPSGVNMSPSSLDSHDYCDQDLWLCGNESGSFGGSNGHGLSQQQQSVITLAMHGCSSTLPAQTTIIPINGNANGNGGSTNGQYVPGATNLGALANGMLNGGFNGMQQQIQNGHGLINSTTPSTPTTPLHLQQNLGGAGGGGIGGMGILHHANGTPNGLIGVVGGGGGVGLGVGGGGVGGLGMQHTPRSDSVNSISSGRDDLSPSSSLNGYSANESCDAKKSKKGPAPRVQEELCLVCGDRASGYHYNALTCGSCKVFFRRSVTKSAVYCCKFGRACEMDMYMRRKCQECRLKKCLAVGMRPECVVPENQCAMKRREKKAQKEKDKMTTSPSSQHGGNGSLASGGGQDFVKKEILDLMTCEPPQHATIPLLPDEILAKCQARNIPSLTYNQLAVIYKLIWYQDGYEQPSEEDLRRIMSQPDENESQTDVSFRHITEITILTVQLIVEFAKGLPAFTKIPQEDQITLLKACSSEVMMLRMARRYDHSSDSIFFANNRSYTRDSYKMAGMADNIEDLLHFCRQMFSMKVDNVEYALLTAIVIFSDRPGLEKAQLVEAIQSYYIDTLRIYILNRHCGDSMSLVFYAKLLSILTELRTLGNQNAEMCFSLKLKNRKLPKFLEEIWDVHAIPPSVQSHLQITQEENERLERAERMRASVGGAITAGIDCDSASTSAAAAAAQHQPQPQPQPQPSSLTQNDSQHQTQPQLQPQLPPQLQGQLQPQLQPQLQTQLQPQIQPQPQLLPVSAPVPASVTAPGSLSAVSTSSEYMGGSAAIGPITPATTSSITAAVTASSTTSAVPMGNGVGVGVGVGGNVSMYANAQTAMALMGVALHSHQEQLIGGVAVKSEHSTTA
- Sequence (P19793 whole entry, further chain): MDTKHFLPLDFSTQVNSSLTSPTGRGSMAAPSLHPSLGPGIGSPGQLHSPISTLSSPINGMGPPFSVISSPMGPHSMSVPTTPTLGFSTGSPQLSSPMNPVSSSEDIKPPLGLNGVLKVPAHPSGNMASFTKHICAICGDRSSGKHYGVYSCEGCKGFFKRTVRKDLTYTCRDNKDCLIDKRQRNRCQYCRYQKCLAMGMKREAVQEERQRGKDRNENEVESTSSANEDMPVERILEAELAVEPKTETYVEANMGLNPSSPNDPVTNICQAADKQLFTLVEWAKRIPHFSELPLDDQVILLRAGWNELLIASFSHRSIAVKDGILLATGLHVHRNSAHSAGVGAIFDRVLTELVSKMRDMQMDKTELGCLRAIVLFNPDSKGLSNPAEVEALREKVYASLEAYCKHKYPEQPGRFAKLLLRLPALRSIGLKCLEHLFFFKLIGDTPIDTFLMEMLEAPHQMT
- assay.conditions: VgEcR/RXR switch in 3T3 cells
recorded.endpoint: pEC50
One number for each entry, as −log10 of the molar value.

Query string: Give its pEC50 value. Item: `CC(C)CC[C@@H](O)[C@](C)(O)[C@H]1CC[C@@]2(O)C3=CC(=O)[C@]4(O)C[C@@H](O)[C@@H](O)C[C@]4(C)[C@H]3[C@H](O)C[C@]12C`
Result string: 6.07

* * *

- test.description: Plasma protein binding assay (dialysis)
- Format: in vitro ADME
- assay.conditions: both sexes; human plasma vs PBS pH 7.4, ca. 24 hours at 37° C.
Would you kindly list fraction unbound for each of these compounds?
Numbers only.

Query string: What does the data say about its fraction unbound? Entry: CC(C)(O)CCC(O)C(C)(O)C1CCC2(O)C3=CC(=O)C4CC(O)C(O)CC4(C)C3CCC12C (centres unmarked) [20E, 20-hydroxyecdysone]
Result string: 0.908

Others:
Query string: # lookup: fraction unbound of `CC(C)CC[C@@H](O)[C@](C)(O)[C@H]1CC[C@@]2(O)C3=CC(=O)[C@@H]4C[C@@H](O)[C@@H](O)C[C@]4(C)[C@H]3CC[C@]12C`
Result string: 0.426

* * *

- test.system: wild-type CfEcR (GAL4-CfEcR-DEF with VP16-RXR-USP chimera) (Choristoneura fumiferana)
- Sequence (O77255 219-541, change not shown): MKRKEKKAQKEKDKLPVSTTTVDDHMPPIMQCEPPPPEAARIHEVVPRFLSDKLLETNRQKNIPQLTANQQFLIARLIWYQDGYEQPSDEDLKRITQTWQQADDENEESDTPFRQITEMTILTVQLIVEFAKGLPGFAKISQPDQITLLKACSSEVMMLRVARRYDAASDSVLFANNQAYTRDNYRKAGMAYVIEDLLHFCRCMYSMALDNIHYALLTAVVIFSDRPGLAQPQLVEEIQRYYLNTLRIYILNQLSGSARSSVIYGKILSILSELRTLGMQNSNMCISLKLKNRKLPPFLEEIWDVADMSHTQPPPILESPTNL
- Sequence (P28702 whole entry partner, the tested form may be a part): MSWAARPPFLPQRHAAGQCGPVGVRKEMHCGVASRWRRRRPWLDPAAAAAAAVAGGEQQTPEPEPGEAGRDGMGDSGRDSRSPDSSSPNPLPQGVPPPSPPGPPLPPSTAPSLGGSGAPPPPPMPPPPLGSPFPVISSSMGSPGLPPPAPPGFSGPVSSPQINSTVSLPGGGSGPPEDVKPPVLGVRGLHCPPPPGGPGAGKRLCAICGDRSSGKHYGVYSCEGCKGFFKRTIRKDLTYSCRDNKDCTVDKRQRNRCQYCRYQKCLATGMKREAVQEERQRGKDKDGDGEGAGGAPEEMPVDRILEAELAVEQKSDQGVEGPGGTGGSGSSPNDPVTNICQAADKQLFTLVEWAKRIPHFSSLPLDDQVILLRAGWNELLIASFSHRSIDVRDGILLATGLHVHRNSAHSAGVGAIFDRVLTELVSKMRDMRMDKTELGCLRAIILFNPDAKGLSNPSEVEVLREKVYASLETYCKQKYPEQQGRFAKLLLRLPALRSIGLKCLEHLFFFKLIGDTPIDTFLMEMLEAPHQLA
- test.description: Two-hybrid gene switch assay, luciferase reporter, wild-type CfEcR, mouse NIH3T3 cells
I'd be grateful if you could share measured EC50 for these entries.

Worked cases, answers included:
Query string: Consider the compound shown here: `CC(C)(O)CC[C@@H](O)[C@](C)(O)[C@H]1CC[C@@]2(O)C3=CC(=O)[C@]4(O)C[C@@H](O)[C@@H](O)C[C@]4(C)[C@H]3CC[C@]12C` What is its recorded EC50?
Result string: ~20 µM

Query string: May I ask what EC50 has been recorded for CC(C)(O)C(CCC(C)(O)C1CCC2(O)C3=CC(=O)C4CC(O)C(O)CC4(C)C3CCC12C)OC(=O)c1ccc[nH]1 (centres unmarked) ?
Result string: > 10 µM

Query string: Look up EC50 for this compound: CO[C@H](CCC(C)C)[C@](C)(O)C1CC[C@@]2(O)C3=CC(=O)C4C[C@@H](O)[C@@H](O)CC4(C)C3=CCC12C (some centres unmarked)
Result string: 13.7 µM

Query string: Consider the compound CC(C)(O)CCCC(C)(O)C1CCC2(O)C3=CC(=O)C4CC(O)C(O)CC4(C)C3CCC12C (centres unmarked) and give its measured EC50.
Result string: > 33 µM

Query string: Fill blank: measured EC50 of the compound C[C@@H](CO)CC[C@@H](O)[C@](C)(O)[C@H]1CC[C@@]2(O)C3=CC(=O)[C@@H]4C[C@@H](O)[C@@H](O)C[C@]4(C)[C@H]3CC[C@]12C [(25R)-inokosterone] is ____.
Result string: > 33 µM

Go through the items and report each one's EC50.
1. CO[C@H]1CC2(C)C(C[C@H]1OC)C(=O)C=C1C2CCC2(C)C([C@@](C)(O)[C@@H](CCC(C)(C)O)OC)CC[C@@]12OC (some centres unmarked)
2. CCC(CC(O)C(C)(O)C1CCC2(O)C3=CC(=O)C4CC(O)C(O)CC4(C)C3CCC12C)C(C)(C)O (centres unmarked)
3. CC(C)(O)CC[C@@H](O)[C@](C)(O)[C@H]1CC[C@@]2(O)C3=CC(=O)[C@@H]4C[C@H]5OC(C)(C)O[C@H]5C[C@]4(C)[C@H]3CC[C@]12C [20-hydroxyecdysone-2,3-acetonide]
4. CCCCO[C@H](CCC(C)(C)O)[C@](C)(O)C1CC[C@@]2(O)C3=CC(=O)C4C[C@@H](O)[C@@H](O)CC4(C)C3CCC12C (some centres unmarked)
5. CC(C)(O)CC[C@@H](O)[C@](C)(O)[C@H]1CC[C@@]2(O)C3=C[C@H](O)[C@@H]4C[C@@H](O)[C@@H](O)C[C@]4(C)[C@H]3CC[C@]12C [Compound 6a-hydroxy-20-hydroxyecdysone]
6. CC(C)(O)CC[C@@H](O)[C@](C)(O)[C@H]1CC[C@@]2(O)C3=CC(=O)[C@@H]4C[C@@H](O)[C@@H](O)C[C@]4(C)C3=CC[C@]12C [Compound 25-hydroxydacryhainansterone]

Result string:
> 33 µM
> 33 µM
> 33 µM
> 33 µM
> 33 µM
> 33 µM
